# test-name: yeast display, Sf9 membrane polyspecificity reagent, FACS + sequencing; frameworks hold sequencing errors
observed-property: polyreactivity (PSR sort gate)

sequence	polyreactivity (PSR sort gate)
QVQLVESGGGLVQAGGSLRLSCAASGQTIAAYVMGWYRQAPGKERELVARISRSGGSTYYADSVKGRFTISRDNAKNTVYLQMNSLKPEDTAVYYCAAARPYKTSLPGAPYDYWGQGTQVTVSS	low polyreactivity
QVQLVESGGGLVQAGGRLRLSCAASGRIFKTNAMGWYRQAPGKERELVPAISKRGGRTYYADSVKGRFTISRDNAKNTVYLQMNSLKPEDTAVYYCATRYSGYSLGDYWGQGTQVTVSS	high polyreactivity
QVQLVESGGGLVQAGGSLRLSCAASGFTFPPYGMGWYRQAPGKERELVASISIGGGTYYADSVKGRFTISRDNAQNTVYLQMNSLKPEDTPVYYCAADLGQWSYYEFDYWGQGTQVTVSS	low polyreactivity
QVQLVESGGGLVQAGGSLRLSCAASGSTFWYYAMGWYRQAPGKERELVAAINGSGSRTYYADSVKGRFTISRDNAKNTVYLQMNSLKPEDTAVYYCAAGSLGRYYFKLDYWGQGTQVTVSS	high polyreactivity

Note: attention shifts to another entry.
IN: Endpoint output: polyreactivity (PSR sort gate) of QVQLVESGGGLVQAGGSLRLSCAASGRTFWNYAMGWYRQAPGKERELVAVIRFSDGSTYYADSVKGRFTISRDNAKNTVYLQMNSLKPEDTAVYYCAAKGPRRWGSGFDYWGQATQVTVSS . Value?
OUT: low polyreactivity

----------
# test-name: yeast display, Sf9 membrane polyspecificity reagent, FACS + sequencing; frameworks hold sequencing errors
observed-property: polyreactivity (PSR sort gate)

Sample records with polyreactivity (PSR sort gate):
sequence	observed-property	value-reported
QVQLVESGGGLVQAGGSLRLSCAASGSIFSGYAMGWYRQAPGKERELVAAINWTGDSTYYADSVKGRFTISRDNAKNTVYLQMNSLKPEDTAVYYCAAIRRQKGLWDYYYWGQGSQVTVSS	polyreactivity (PSR sort gate)	low polyreactivity
QVQLVESGGGLVQAGGSLRLSCAASGGTFIRYAMALYRQAPGKERELVADITSSGDSTYYADSVKGRFTISRDNAKNTVYLPMNSLITEDTAVYYCATTHDYWLWGMGYWGQGTQVTVSS	polyreactivity (PSR sort gate)	high polyreactivity
QVQLVESCGGLDQAGGSLRLSCAASGSMFGYAMGWYRQAPGKERELVASTTYADSVKGRFTISRDNAKNTVYLQMNSLKPEDTAVYDCAADDWYTVEMEYWGQGTLVTVSS	polyreactivity (PSR sort gate)	low polyreactivity
QVQLVESGGGLVQAGGSLRLICAASGRTFSSYAMGWYRQAPGKERELVAALSRRGGSTYYADSVKGRFTISRDNAKNTVYLQMNSLNPEDTAVYYCAADVYKQYGYYYWGQGTQVTVSS	polyreactivity (PSR sort gate)	high polyreactivity

Note: attention shifts to another entry.
IN: Endpoint output: polyreactivity (PSR sort gate) of QVQLVESGGGLVQAGGSLRLSCAASGRILHRYVMGWYIQAPGKERELVAAISSGGSTTYADSVKGRFTISRDNAKNTVYLQIYSLKPEDTAVYYCAKYSFWSTSRMDYWGQGTQVTVSS . Value?
OUT: low polyreactivity

----------
# test-name: yeast display, Sf9 membrane polyspecificity reagent, FACS + sequencing; frameworks hold sequencing errors
observed-property: polyreactivity (PSR sort gate)

Sample records with polyreactivity (PSR sort gate):
sequence	polyreactivity (PSR sort gate)
QVQLVESGGGLVQAGGSLRISCAASGSIFVKNAMGWYRQAPGKEREFVAAITTSGGSTNYADSVKGRFTISRDNAKNTVYLQMNSLKPEDTAVYYCNTDIFPAAYDYWGQGTQVTVSS	low polyreactivity
QVQLVESGGCLVQAGGSLRLSCAASGSTFDYYMGWYRQAPGKERELVAAITYSGGSTYYADSVKGRFTISRDNAKNSVYLQMNSLNPEDTAVYYCAKDRSTFDDFYSNYYWGQGTQVTVSS	low polyreactivity
QGQLVESCGGLVQAGGSLRLSCAASGSTFAAYTMGWYRQAPGQERELVAAIRFDGGRTYYADSVKGRFTSSRDNAKNTVYLPMNSLKPEDTAVYYCRAWQSYSYDYWGQGTQVTVSS	high polyreactivity
QVQLVESGGGLVQAGGSLRLSCAASGRTFGSYAMGWYRQAPGKERELVAGISWSGGITYYADSVKGRFTISRDNAKNTVYLQMNSLKPEDTAVYYCAASPRRDENAGRVRLYYWGQGTQVTVSS	high polyreactivity

Note: attention shifts to another entry.
IN: Endpoint output: polyreactivity (PSR sort gate) of QVQLVESGGGLVQAGGSHRFSCGASGSTSTYYAMGCYRQAPGTERELVAAISSGGSTNYADSVKGRFTISRDNAKNTVYLKMNSLKPEETAVYYCATDSGDGEGDYWGQGTQVTVSS . Value?
OUT: low polyreactivity
